System: U937 cells (human monocytic cell line)
Assay: BzATP-induced IL-1β secretion inhibition in PMA-differentiated U937 cells
Assay type: cell-based
Details: U-937, U937 cells differentiated with PMA, read-out: IL-1β production inhibition grade (IC50)
measurement-kind: IC50

sample_smiles=CC[C@H]1[C@@H](O)[C@@H]2[C@H](CC[C@]3(C)[C@@H]([C@H](C)CCC(=O)N4CCC(S(=O)(=O)O)CC4)CC[C@@H]23)[C@@]2(C)CC[C@@H](O)C[C@@H]12 measurement_kind=IC50 test_result="≥ 200 nM"
sample_smiles=C[C@H](CCC(=O)N[C@@H](Cc1ccccc1)CS(=O)(=O)O)[C@H]1CC[C@H]2[C@@H]3[C@H](O)C[C@@H]4C[C@H](O)CC[C@]4(C)[C@H]3C[C@H](O)[C@]12C measurement_kind=IC50 test_result="< 50 nM"
sample_smiles=C[C@H](CCC(=O)N1CCN(C)CC1)[C@H]1CC[C@H]2[C@@H]3CC[C@@H]4C[C@H](O)CC[C@]4(C)[C@H]3C[C@H](O)[C@]12C measurement_kind=IC50 test_result="≥ 200 nM"

Q: So what IC50 did CC[C@H]1[C@@H](O)[C@@H]2[C@H](C[C@H](O)[C@]3(C)[C@@H]([C@H](C)CCC(=O)N[C@@H](CS(=O)(=O)O)c4ccccc4)CC[C@@H]23)[C@@]2(C)CC[C@@H](O)C[C@@H]12 get with U937 cells (human monocytic cell line)?
Result: ≥ 200 nM

###

System: U937 cells (human monocytic cell line)
Assay: BzATP-induced IL-1β secretion inhibition in PMA-differentiated U937 cells
Assay type: cell-based
Details: U-937, U937 cells differentiated with PMA, read-out: IL-1β production inhibition grade (IC50)
pIC50: −log10 of the molar value.
measurement-kind: pIC50

sample_smiles=CC[C@H]1[C@@H](O)[C@@H]2[C@H](CC[C@]3(C)[C@@H]([C@H](C)CCC(=O)N4CC(S(=O)(=O)O)C4)CC[C@@H]23)[C@@]2(C)CC[C@@H](O)C[C@@H]12 measurement_kind=pIC50 test_result="≤ 6.70"
sample_smiles=C[C@H](CCC(=O)NCCCS(=O)(=O)O)[C@H]1CC[C@H]2[C@@H]3CC[C@@H]4C[C@H](O)CC[C@]4(C)[C@H]3CC[C@]12C measurement_kind=pIC50 test_result="> 7.30"
sample_smiles=C[C@H](CS(=O)(=O)O)NC(=O)CC[C@@H](C)[C@H]1CC[C@H]2[C@@H]3CC[C@@H]4CC(=O)CC[C@]4(C)[C@H]3CC[C@]12C measurement_kind=pIC50 test_result="≤ 6.70"
sample_smiles=CC[C@H]1[C@@H](O)[C@@H]2[C@H](CC[C@]3(C)[C@@H]([C@H](C)CCC(=O)N4CCC[C@H](S(=O)(=O)O)C4)CC[C@@H]23)[C@@]2(C)CC[C@@H](O)C[C@@H]12 measurement_kind=pIC50 test_result="6.70 to 7.00"

Q: Returns the measured pIC50 for the input molecule. Input: C[C@H](CCC(=O)NCCN1CCOCC1)[C@H]1CC[C@H]2[C@@H]3CC[C@@H]4C[C@H](O)CC[C@]4(C)[C@H]3C[C@H](O)[C@]12C
Result: 7.00 to 7.30

Q: Returns the measured pIC50 for the input molecule. Input: CC[C@H]1[C@@H](O)[C@@H]2[C@H](C[C@H](O)[C@]3(C)[C@@H]([C@H](C)CCC(=O)N[C@H](CS(=O)(=O)O)c4ccccc4)CC[C@@H]23)[C@@]2(C)CC[C@@H](O)C[C@@H]12
Result: 7.00 to 7.30

Q: Returns the measured pIC50 for the input molecule. Input: CC(C)[C@@H](CS(=O)(=O)O)NC(=O)CC[C@@H](C)[C@H]1CC[C@H]2[C@@H]3CC[C@@H]4C[C@H](O)CC[C@]4(C)[C@H]3C[C@H](O)[C@]12C
Result: 7.00 to 7.30

Q: Returns the measured pIC50 for the input molecule. Input: CC[C@H]1[C@@H](O)[C@@H]2[C@H](CC[C@]3(C)[C@@H]([C@H](C)CCC(=O)N(CCS(=O)(=O)O)c4ccccc4)CC[C@@H]23)[C@@]2(C)CC[C@@H](O)C[C@@H]12
Result: 7.00 to 7.30

Q: Returns the measured pIC50 for the input molecule. Input: C[C@H](CCC(=O)N1CC(S(=O)(=O)O)C1)[C@H]1CC[C@H]2[C@@H]3CC[C@@H]4CC(=O)CC[C@]4(C)[C@H]3CC[C@]12C
Result: ≤ 6.70

###

Measured inhibition at 1 µM by item
System: J774A.1 (Mouse BALB/c monocyte macrophage cell line) cells
Assay: LPS-induced TNF-α secretion inhibition in J774A.1 cells
Type: cell-based
Conditions: J774.A1, 1 μM compound, graded compared to taurodeoxycholic acid (positive control), read-out: TNF-α production inhibition grade

sample_smiles=CC(C)N(CCS(=O)(=O)O)C(=O)CC[C@@H](C)[C@H]1CC[C@H]2[C@@H]3CC[C@@H]4C[C@H](O)CC[C@]4(C)[C@H]3C[C@H](O)[C@]12C measurement_kind="inhibition at 1 µM" test_result="< 20%"
sample_smiles=CC[C@H]1[C@@H](O)[C@@H]2[C@H](CC[C@]3(C)[C@@H]([C@H](C)CCC(=O)N4CCC[C@H]4CS(=O)(=O)O)CC[C@@H]23)[C@@]2(C)CC[C@@H](O)C[C@@H]12 measurement_kind="inhibition at 1 µM" test_result="< 20%"
sample_smiles=C[C@H](CCC(=O)N(C)CCS(=O)(=O)O)[C@H]1CC[C@H]2[C@@H]3CC[C@@H]4C[C@H](O)CC[C@]4(C)[C@H]3CC[C@]12C measurement_kind="inhibition at 1 µM" test_result="< 20%"

Turning now to a further record.
Q: Returns the measured inhibition at 1 µM for the input molecule. Input: CC[C@H]1[C@@H](O)[C@@H]2[C@H](C[C@H](O)[C@]3(C)[C@@H]([C@H](C)CCC(=O)N(CCS(=O)(=O)O)C(C)C)CC[C@@H]23)[C@@]2(C)CC[C@@H](O)C[C@@H]12
Result: < 20%

###

System: U937 cells (human monocytic cell line)
Test: Pam2CSK4-induced TNF-α secretion inhibition in PMA-differentiated U937 cells
Format: cell-based
Conditions: U-937, U937 cells differentiated with PMA, read-out: TNF-α production inhibition grade (IC50)
pIC50: −log10 of the molar value.
measurement-kind: pIC50

Use these answered entries as a reference point.
sample_smiles=C[C@H](CCC(=O)N(CCS(=O)(=O)O)Cc1ccccc1)[C@H]1CC[C@H]2[C@@H]3CC[C@@H]4C[C@H](O)CC[C@]4(C)[C@H]3CC[C@]12C test_result="≤ 5.70"
sample_smiles=C[C@H](CCC(=O)N[C@H]1CCCC[C@H]1S(=O)(=O)O)[C@H]1CC[C@H]2[C@@H]3CC[C@@H]4CC(=O)CC[C@]4(C)[C@H]3CC[C@]12C test_result="6.00 to 6.30"
sample_smiles=C[C@H](CCC(=O)N1CC[C@@H](S(=O)(=O)O)C1)[C@H]1CC[C@H]2[C@@H]3CC[C@@H]4C[C@H](O)CC[C@]4(C)[C@H]3CC[C@]12C test_result="6.00 to 6.30"
sample_smiles=C[C@H](CCC(=O)N(CCS(=O)(=O)O)c1ccccc1)[C@H]1CC[C@H]2[C@@H]3CC[C@@H]4C[C@H](O)CC[C@]4(C)[C@H]3CC[C@]12C test_result="≤ 5.70"
sample_smiles=C[C@H](CCC(=O)N(CCS(=O)(=O)O)C1CCOCC1)[C@H]1CC[C@H]2[C@@H]3CC[C@@H]4C[C@H](O)CC[C@]4(C)[C@H]3C[C@H](O)[C@]12C test_result="5.70 to 6.00"

Turning now to a further record.
Q: So what pIC50 did C[C@H](CCC(=O)N[C@@H]1CCCC[C@@H]1S(=O)(=O)O)[C@H]1CC[C@H]2[C@@H]3CC[C@@H]4CC(=O)CC[C@]4(C)[C@H]3CC[C@]12C get with U937 cells (human monocytic cell line)?
Result: > 6.30

###

Tested on: U937 cells (human monocytic cell line)
Assay: BzATP-induced IL-1β secretion inhibition in PMA-differentiated U937 cells
Type: cell-based
Settings: U-937, U937 cells differentiated with PMA, read-out: IL-1β production inhibition grade (IC50)
pIC50: −log10 of the molar value.
Measured pIC50 by item

sample_smiles=CC(C)[C@H](CS(=O)(=O)O)NC(=O)CC[C@@H](C)[C@H]1CC[C@H]2[C@@H]3CC[C@@H]4CC(=O)CC[C@]4(C)[C@H]3CC[C@]12C measurement_kind=pIC50 test_result="≤ 6.70"
sample_smiles=C[C@H](CCC(=O)NCS(=O)(=O)O)[C@H]1CC[C@H]2[C@@H]3CC[C@@H]4C[C@H](O)CC[C@]4(C)[C@H]3C[C@H](O)[C@]12C measurement_kind=pIC50 test_result="> 7.30"
sample_smiles=CC[C@H]1[C@@H](O)[C@@H]2[C@H](CC[C@]3(C)[C@@H]([C@H](C)CCC(=O)N4CC[C@@H](S(=O)(=O)O)C4)CC[C@@H]23)[C@@]2(C)CC[C@@H](O)C[C@@H]12 measurement_kind=pIC50 test_result="> 7.30"

Turning now to a further record.
Q: Returns the measured pIC50 for the input compound. Input: C[C@H](CCC(=O)N(CCS(=O)(=O)O)c1ccccc1)[C@H]1CC[C@H]2[C@@H]3[C@H](O)C[C@@H]4C[C@H](O)CC[C@]4(C)[C@H]3C[C@H](O)[C@]12C
Result: > 7.30
